Kindly supply the reported Kd values for the records listed here.
subject.of.test: T1, PUF4 RNA-binding domain (Saccharomyces cerevisiae, UniProt P25339 537-888)
T1 sequence: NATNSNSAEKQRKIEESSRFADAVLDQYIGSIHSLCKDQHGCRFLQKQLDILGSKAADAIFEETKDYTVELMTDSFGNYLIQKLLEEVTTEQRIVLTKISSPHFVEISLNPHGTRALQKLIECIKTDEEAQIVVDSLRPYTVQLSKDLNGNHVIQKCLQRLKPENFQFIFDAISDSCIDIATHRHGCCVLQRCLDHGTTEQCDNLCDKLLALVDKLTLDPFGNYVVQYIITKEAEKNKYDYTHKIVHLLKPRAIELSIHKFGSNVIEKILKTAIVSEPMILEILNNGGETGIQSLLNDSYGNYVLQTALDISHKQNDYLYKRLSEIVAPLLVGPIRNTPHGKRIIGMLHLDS
assay.name: Mg; RNA-MaP; 20 mM Na-HEPES pH 7.4, 30 mM KOAc, 0.75 mM MgCl2, 0.1% Tween-20, 5% glycerol, 0.1 mg/mL BSA, 2 mM DTT; 25 C; 0.0125-409.6 nM protein
condition.context: tags: N-His6-TEV cleaved; C-SNAP kept, Cy3B-labelled; label: tethered on chip by stalled RNA polymerase

Task: Field request: Kd | item: Ic_S4_P4E.1_K4.1_C4.1_H4.1_A4.1_[T5G]_[A6T]_F4.1_[A9G]_T4.1 (ssRNA) RNA: UUUGACAACUGAUCGUUCUUUCUUGUAGUUUGUUCUUUCUCGAUCAGUUGUCUUU
Result: 65 nM

Task: // query Kd value for entry Id_ii_S2_P5E.4_K5.3_C5.2_[C-2A]_[T-1C]_H5.3_A5.1_F5.1_T5.2 (ssRNA) RNA: UUUGAUUAAUAUGAUAUCGUUCUUUCUACACACUUAUUAUAUUCUUUCUCGAUAUCAUAUUAAUCUUU
Result: 754 nM

Task: Bench note: what Kd did UCUCUUUCUAUAUUAUCUCUU (ssRNA) [Ia_S1_P4E.1_K4.1_C4.1_H4.1_[G2C]_A4.1_F4.1_T4.1] show?
Result: 1380 nM

Task: So what does the record say about Kd for UCUCUUUCUAUAUUAUUAACUCUCUU (ssRNA) [Id_ii_S1_P5E.3_K5.2_C5.2_[C-2T]_[T-1C]_H5.2_A5.1_F5.1_T5.2_[T11A]_[A12C]] ?
Result: 581 nM

Task: // returns reported Kd for input Id_ii_S2_P4E.3_K4.2_C4.2_[C-2A]_[T-1A]_H4.2_A4.1_F4.1_T4.2_[G10A]_[T11A] (ssRNA) RNA: UUUGAUUAAUAUGAUAUCGUUCUUUCUAAUAUAUAUUAAAUUCUUUCUCGAUAUCAUAUUAAUCUUU
Result: 233 nM

Task: Recorded Kd of Id_ii_S2_P5E.3_K5.2_C5.2_[C-2G]_[T-1C]_H5.2_A5.1_F5.1_T5.2_[T11A]_[A12C] (ssRNA) RNA: UUUGAUUAAUAUGAUAUCGUUCUUUCUGCUAUAUUAUUAACUUCUUUCUCGAUAUCAUAUUAAUCUUU , please.
Result: 381 nM

Task: Report Kd for ACAAACAAACACUUAUUACCACAAAC (ssRNA) [Id_ii_S3_P5E.4_K5.3_C5.2_[C-2A]_[T-1A]_H5.3_A5.1_F5.1_T5.2_[T11C]_[A12C]] please.
Result: > 2300 nM

Task: Which Kd is listed for ACAAACGAUAUAUAUACAACAAAC (ssRNA) [Id_ii_S3_P3E.3_K3.2_C3.2_[C-2G]_[T-1A]_H3.2_A3.1_F3.1_T3.2_[T9C]] ?
Result: 839 nM

Task: For the binder ACAAACCUUAUAUAUUACUACAAAC (ssRNA) [Id_ii_S3_P4E.3_K4.2_C4.2_H4.2_A4.1_F4.1_T4.2_[G10C]] , what Kd is on record?
Result: 13.3 nM

Task: So what's the measured Kd for this one? UCUCUUCAUGUAUUAUUAGUUCUCUU (ssRNA) [Id_ii_S1_P5E.2_K5.1_C5.2_[T-1A]_H5.1_A5.1_F5.1_T5.2_[T11G]_[A12T]]
Result: 3.5 nM

Task: Report Kd for UCUCUUUAACACUAUACGUCUCUU (ssRNA) [Id_ii_S1_P3E.4_K3.3_C3.2_[C-2T]_[T-1A]_H3.3_A3.1_F3.1_T3.2_[T9C]_[A10G]] please.
Result: > 2300 nM

Task: Need Kd, item Ic_S4_P4E.1_K4.1_C4.1_H4.1_A4.1_[A6C]_[T7C]_F4.1_[T8C]_[A9C]_T4.1 (ssRNA) RNA: UUUGACAACUGAUCGUUCUUUCUUGUAUCCCCUUCUUUCUCGAUCAGUUGUCUUU
Result: 403 nM
